- system.under.test: Parkinson's disease protein 7 (PARK7/DJ1) (human)
- test.details: primary screen, percent inhibition; higher = more effect of the substance
- setup.conditions: 100 µM
The campaign covered roughly 7,900 compounds. About 400 (5.1%) showed an effect of 50% or more. What follows is part of a selection rich in strong results, with near analogues and random picks from the rest.
endpoint.label: Inhibition % (%)
Express the result in % but write the number alone.

Examples with answers:
compound | unit.info | Inhibition %
COCC1(C(=O)Nc2cccc(S(=O)(=O)F)c2)CCCC1 | % | 94.3
CCN(CC1COc2ccccc2O1)C(=O)CCl (stereo not shown) | % | 21.2
CN(CC1COc2ccccc2O1)C(=O)CCl (stereo not shown) | % | 96.7
N#Cc1nc(N2CC(CF)C2)ccc1Cl | % | 3.54
CSc1ccc(CN(C)C(=O)CCl)cc1 | % | 14.4

Exercise: State the recorded Inhibition % for this entry: CC(C)(C)OC(=O)c1cc2ccc(B3OC(C)(C)C(C)(C)O3)cc2[nH]1
Solution: 7.8

Exercise: What do we get for COc1cc2c(B3OC(C)(C)C(C)(C)O3)cn(C)c2cn1 ?
Solution: 6.59

----------
- system.under.test: Parkinson's disease protein 7 (PARK7/DJ1) (human, UniProt Q99497)
- Sequence (Q99497 whole entry, looked up): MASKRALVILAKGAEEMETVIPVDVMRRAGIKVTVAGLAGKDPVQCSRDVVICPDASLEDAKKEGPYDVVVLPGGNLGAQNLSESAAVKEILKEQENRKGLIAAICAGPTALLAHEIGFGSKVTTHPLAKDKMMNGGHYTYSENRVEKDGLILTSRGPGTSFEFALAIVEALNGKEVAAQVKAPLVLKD
- test.details: primary screen, percent inhibition; higher = more effect of the substance
- setup.conditions: 100 µM
The campaign covered roughly 7,900 compounds. About 400 (5.1%) showed an effect of 50% or more. Shown is part of a subset that was picked to be rich in strong results.
endpoint.label: Inhibition % (%)
Express the result in % but write the number alone.

compound | Inhibition % / %
CC1(C)OB(c2cnc3ccnn3c2)OC1(C)C | 5.87
NC(=O)Nc1ccc(S(=O)(=O)F)cc1 | 18.9
CCc1ccc(NC(=O)CCl)cc1 | 99.1
O=c1c2sccc2nc(S)n1CCCN1CCOCC1 | 1.46
Cl.ClCCc1nc2ccccc2[nH]1 | 3.05
O=C(Nc1ccncc1)N1CCC(C2OCCO2)CC1 | 9.17
O=C(CCl)N(c1ccccc1)C1CCS(=O)(=O)C1 (centres unmarked) | 5.5
COc1ccccc1-c1nnc(-c2ccc(S(=O)(=O)F)cc2)o1 | 9.83
N#Cc1ccc(NC(=O)CCl)cc1Cl | 29.1
COC(=O)c1ccc(NC(=O)CCl)cc1 | 60.9

Exercise: State the recorded Inhibition % for this entry: CC(=O)c1ccc(NC(=O)CCl)cc1
Solution: 45.4

----------
- system.under.test: Parkinson's disease protein 7 (PARK7/DJ1) (human)
- test.details: primary screen, percent inhibition; higher = more effect of the substance
- setup.conditions: 100 µM
About 400 (5.1%) of roughly 7,900 compounds showed an effect of 50% or more. This excerpt belongs to a sample that is enriched for strong results.
endpoint.label: Inhibition % (%)
Express the result in % but write the number alone.

Examples with answers:
compound | numeric.result
O=C(CCl)NCc1cccs1 | 3.94
C=CC(=O)Nc1ccccc1 | 3.57
O=C(CCl)NC(=O)Nc1ccccc1F | -2.13

Exercise: State the recorded Inhibition % for this entry: O=C(CCCl)Nc1ccccc1F
Solution: 6.72

Exercise: What do we get for COc1cccc(NC(=O)CN(C)C(=O)CCl)c1 ?
Solution: 95.9

Exercise: What do we get for O=C(CS)Nc1ccc(F)cc1 ?
Solution: 5.25

Exercise: What do we get for C=CC(=O)Nc1cccc2c1CCN(S(C)(=O)=O)C2 ?
Solution: 3.82

Exercise: What do we get for CCOc1cc(S(=O)(=O)n2ccc(C)n2)ccc1Cl ?
Solution: 2.71

Exercise: What do we get for Cc1nc(SC2CC(C)OC2=O)nc(C)c1C (stereo not shown) ?
Solution: 3.23

Exercise: What do we get for Cc1nc(C)c(C=C(C#N)C(=O)NC(C)C)o1 ?
Solution: 3.38

Exercise: What do we get for Cc1[nH]c2ccccc2c1C(=O)CCl ?
Solution: 6.53

Exercise: What do we get for O=C(CCl)Nc1cccc(Cl)c1 ?
Solution: 34.6

Exercise: What do we get for CS(=O)(=O)NCCc1ccc(C(=O)CCl)s1 ?
Solution: 97.6

Exercise: What do we get for O=C1CC2(CCCC2)N1 ?
Solution: 4.3

Exercise: What do we get for CC1(C)OB(c2cccc(OCCCN3CCCC3)c2)OC1(C)C ?
Solution: 1.19

Exercise: What do we get for C=CC(=O)NCC(=O)NC1(C)CCCCC1 ?
Solution: 13.6

Exercise: What do we get for CN(C)CCOc1ccccc1B1OC(C)(C)C(C)(C)O1 ?
Solution: 6.97

Exercise: What do we get for Cc1ccc(CNC(=O)CCl)s1 ?
Solution: 3.17

Exercise: What do we get for CCN(CCC#N)S(=O)(=O)C=Cc1ccccc1Cl ?
Solution: 6.99

----------
Measured Inhibition % accompanies every entry in the list below.
- system.under.test: Parkinson's disease protein 7 (PARK7/DJ1) (human, UniProt Q99497)
- test.details: primary screen, percent inhibition; higher = more effect of the substance
- setup.conditions: 100 µM
Screen size: about 7,900 compounds; about 400 (5.1%) showed an effect of 50% or more. What follows is part of a selection rich in strong results, with near analogues and random picks from the rest.
Remember to follow the number with its unit.

Examples with answers:
compound | Inhibition %
CNC1CCCN(C(=O)C=Cc2cncc(F)c2)C1 (stereo not drawn) | 29.3%
O=C(c1cccnc1S)N1CCOC2(CCCC2)C1 | 6.34%

Read the next record carefully.
Exercise: State the recorded Inhibition % for this entry: Cc1ccc(C(=O)O)cc1S(=O)(=O)F
Solution: 99.4%

----------
- system.under.test: Parkinson's disease protein 7 (PARK7/DJ1) (human)
- test.details: primary screen, percent inhibition; higher = more effect of the substance
- setup.conditions: 100 µM
The whole screen tested about 7,900 compounds, of which about 400 (5.1%) showed an effect of 50% or more. Shown is part of a subset that was picked to be rich in strong results.
endpoint.label: Inhibition % (%)
Express the result in % but write the number alone.

compound | unit.info | Inhibition %
Cc1cc(C)nc(S)n1 | % | 17.2
NC(=O)c1ccccc1NC(=O)CCl | % | 0.06
NC(=O)c1cc(-c2ccccc2)sc1NC(=O)CCl | % | 79.3

Exercise: State the recorded Inhibition % for this entry: C=CCNS(=O)(=O)C=Cc1ccccc1
Solution: 7.29

Exercise: What do we get for N#Cc1cccc(N2CC(O)CC2c2ccccc2)n1 (stereo not drawn) ?
Solution: 96.9

Exercise: What do we get for CCc1nc(C#N)cc(NC2CSC2)n1 ?
Solution: -3.02

----------
- system.under.test: Parkinson's disease protein 7 (PARK7/DJ1) (human)
- test.details: primary screen, percent inhibition; higher = more effect of the substance
- setup.conditions: 100 µM
Among all 7,900 compounds or so, about 400 (5.1%) showed an effect of 50% or more. For the sample, strong results were picked, then their nearest neighbours and some compounds at random.
Measured Inhibition % accompanies every entry in the list below.
Remember to follow the number with its unit.

molecule | Inhibition %
CC1(C)OB(c2ccnc3c(O)cccc23)OC1(C)C | 22.4%
CS(=O)(=O)Nc1ccc(B(O)O)cc1 | 9.91%
Cc1ccc(C)c(C(=O)Cn2cnc(C#N)n2)c1 | -2.83%
COc1ccc(CNC(=O)CCl)cc1OC | 6.67%
Cc1c(NC(=O)c2cccnc2S)cnn1CCC(C)C | 3.61%

Exercise: State the recorded Inhibition % for this entry: O=C(NCC1CCC(O)C1)c1cc(B(O)O)ccc1F (stereo not drawn)
Solution: 1.49%

Exercise: What do we get for O=C(CCl)Nc1ccccc1-c1ccccc1 ?
Solution: 8.41%

----------
- system.under.test: Parkinson's disease protein 7 (PARK7/DJ1) (human, UniProt Q99497)
- test.details: primary screen, percent inhibition; read as competition with a fluorescent probe by fluorescence polarization; higher = more effect of the substance
- setup.conditions: 100 µM
In all, about 7,900 compounds went through this assay and about 400 (5.1%) showed an effect of 50% or more. The sample as a whole holds a higher share of strong results than the screen did.
endpoint.label: Inhibition % (%)
Express the result in % but write the number alone.

Examples with answers:
compound | unit.info | numeric.result
NC(=O)c1ccsc1NC(=O)CCCl | % | 9.06
C=CC(=O)NCCc1cnn(C)c1 | % | 3.91
O=C(OCc1ccccc1)N1CCCCC1CS(=O)(=O)F (stereo not drawn) | % | 16
O=C(c1ccccc1)N1CCCC(S(=O)(=O)F)C1 (stereo not drawn) | % | 32.4
O=C(CCl)NC(=O)c1cccs1 | % | 23.4

Exercise: State the recorded Inhibition % for this entry: N#CC(=Cc1ccc(Cl)cc1)C(=O)Nc1ccncc1
Solution: 2.9

Exercise: What do we get for CCc1noc(CC)c1CNCc1ccccc1B(O)O ?
Solution: 2.29

Exercise: What do we get for C#Cc1ccc(C=C(C#N)C(=O)Nc2ccncc2)cc1 ?
Solution: 73.3
